Data origin, for the record: PubChem BioAssay

Assay: reversal of MRP1-mediated doxorubicin resistance, pilot screen, H69AR cells, doxorubicin co-treatment (AID 601)
Settings: H69AR cells + 2 uM doxorubicin, CellTiter-Glo, 72 h; measured here: viability with 2 uM doxorubicin; at 10 µM; stronger effect = lower value
attributeMeasured: viability

- compound: "Cc1cc(NC(=O)CSc2nc3ccsc3c(=O)n2NC(=O)c2ccccc2)no1"
  recordedValue: "85.1%"
- compound: "O=C(Nc1ccccc1C(=O)N1CCN(c2ccccc2)CC1)c1ccco1"
  recordedValue: "94.2%"
- compound: "O=C(OCC(=O)N1CCCCCC1)c1cccs1"
  recordedValue: "96.7%"

# map each compound to its viability
1. COC(=O)C1=C(C)NC(C)=C(C(=O)OC)C1c1cc2cc(C)ccc2[nH]c1=O
2. CCOc1ccc(OCC)c(NC(=O)CN2CCN(C(=O)c3ccco3)CC2)c1
3. O=C(NCCCN1CCCC1=O)c1ccc2c(c1)NC(=O)C(N1CCOCC1)S2 (stereo unspecified)
4. O=C(CSc1nnnn1C1CCCC1)Nc1cccc(NC(=O)c2ccco2)c1
5. CCOc1ccc(-n2c(=O)cc(N3CCN(c4ccccc4)CC3)[nH]c2=O)cc1
6. CN(C)c1nc(SCCOC(=O)c2ccccc2)nc(N(C)C)n1
7. CCN1CCN(S(=O)(=O)Cc2ccccc2)CC1

Reply text:
1. 72.6%
2. 30.6%
3. 83.3%
4. 97%
5. 95.6%
6. 85%
7. 92.1%

Inquiry: I have this compound here, CC(C)OC(=O)C(CC(=O)O)NCc1ccccc1 (stereo unspecified) , and I need its recorded viability.
Reply text: 88%
